target: E. coli DdlB enzyme (D-alanine:D-alanine ligase) (Escherichia coli, UniProt P07862); construct: made in house; host or cells: E. coli; experiment: biochemical; conditions: residual activity; tested concentration 2.1 mM; read-out: DdlB RA

COMPOUND | TARGET_SYSTEM | remaining activity at 2100 µM [%]
CC(C)C(=O)Nc1ccc(Cl)cc1C(=O)O | E. coli DdlB enzyme (D-alanine:D-alanine ligase) (Escherichia coli, UniProt P07862) | 110
Cc1ccccc1S(=O)(=O)Nc1cnc2c(c1)CCC2 | E. coli DdlB enzyme (D-alanine:D-alanine ligase) (Escherichia coli, UniProt P07862) | 48
O=C(O)c1cc(-c2ccc3c(c2)OCO3)on1 | E. coli DdlB enzyme (D-alanine:D-alanine ligase) (Escherichia coli, UniProt P07862) | 114
Cc1ccc(CS(=O)(=O)N2CCc3ccccc32)cc1 | E. coli DdlB enzyme (D-alanine:D-alanine ligase) (Escherichia coli, UniProt P07862) | 112
CCS(=O)(=O)N1CCCc2cc(C(=O)NC)ccc21 | E. coli DdlB enzyme (D-alanine:D-alanine ligase) (Escherichia coli, UniProt P07862) | 92
O=C(Cc1ccc(Cl)cc1)Nc1nnc[nH]1 | E. coli DdlB enzyme (D-alanine:D-alanine ligase) (Escherichia coli, UniProt P07862) | 79
CCOc1ccc2c(n1)CCN(C(=O)c1ccccn1)C2 | E. coli DdlB enzyme (D-alanine:D-alanine ligase) (Escherichia coli, UniProt P07862) | 44
CC1CCN(C(=O)C2N(C(C)C)C(=O)C23CCCC3)CC1 (centres unmarked) | E. coli DdlB enzyme (D-alanine:D-alanine ligase) (Escherichia coli, UniProt P07862) | 95
CCS(=O)(=O)N1CCC(C(=O)N2CCCCC2)CC1 | E. coli DdlB enzyme (D-alanine:D-alanine ligase) (Escherichia coli, UniProt P07862) | 97
O=C1CCC2(CNC(=O)C3CCOCC3)CCCC=C2N1 (centres unmarked) | E. coli DdlB enzyme (D-alanine:D-alanine ligase) (Escherichia coli, UniProt P07862) | 94
CCn1cnnc1CC1CCCN(C(=O)c2ccco2)C1 (centres unmarked) | E. coli DdlB enzyme (D-alanine:D-alanine ligase) (Escherichia coli, UniProt P07862) | 69
O=C(O)c1cc2nccc(-c3ccccc3)n2n1 | E. coli DdlB enzyme (D-alanine:D-alanine ligase) (Escherichia coli, UniProt P07862) | 74
O=C(O)C1=CC(c2cc(F)cc(F)c2)n2nnnc2N1 (centres unmarked) | E. coli DdlB enzyme (D-alanine:D-alanine ligase) (Escherichia coli, UniProt P07862) | 101
Cc1noc(C)c1C(=O)NCC1Cn2cccc2CN1C (centres unmarked) | E. coli DdlB enzyme (D-alanine:D-alanine ligase) (Escherichia coli, UniProt P07862) | 45
Cc1ccc(S(=O)(=O)N(C)CC2CCOC2)c(C)c1 (centres unmarked) | E. coli DdlB enzyme (D-alanine:D-alanine ligase) (Escherichia coli, UniProt P07862) | 110
CCC([N+](=O)[O-])C1(O)C(=O)Nc2ccccc21 (centres unmarked) | E. coli DdlB enzyme (D-alanine:D-alanine ligase) (Escherichia coli, UniProt P07862) | 95
Cc1ccc(F)cc1S(=O)(=O)N(C)CC1CCOC1 (centres unmarked) | E. coli DdlB enzyme (D-alanine:D-alanine ligase) (Escherichia coli, UniProt P07862) | 102
Cn1nc(CCC(=O)N2CCNC(=O)C2)c2c1CCOC2 | E. coli DdlB enzyme (D-alanine:D-alanine ligase) (Escherichia coli, UniProt P07862) | 99
O=C(O)c1cnc(-c2ccc(F)cc2)[nH]c1=O | E. coli DdlB enzyme (D-alanine:D-alanine ligase) (Escherichia coli, UniProt P07862) | 94
CCc1ccc(C2Nc3ccccc3S(=O)(=O)N2)cc1 (centres unmarked) | E. coli DdlB enzyme (D-alanine:D-alanine ligase) (Escherichia coli, UniProt P07862) | 68
